# System: SNB-78
# Assay name: NCI tumour cell line growth inhibition, 48 h
Active and inactive are the calls of the source. No stated cut-off is given here; in the data, active = GI50 up to about 1.1 µM and inactive = higher.
Record form. Attribute: GI50. Fill in for each entry.

// solved cases for GI50 follow
{"Molecule": "Cc1ccccc1NC(=O)C1C(=O)N(c2ccccc2C)C(=O)/C1=N\\NC(N)=O (centres undefined)", "GI50": "> 100 µM (inactive)"}
{"Molecule": "Cc1ccc(C(=O)c2nnc(C(=O)c3ccc(C)cc3)nn2)cc1", "GI50": "> 100 µM (inactive)"}
{"Molecule": "O=C(O)C(=O)/C=C\\c1ccc(Cl)cc1", "GI50": "> 100 µM (inactive)"}

// for each molecule in input: emit GI50
1. Cc1ccc2[nH]c(=O)c(C(C#N)c3ccccc3)nc2c1 (centres undefined)
2. COC(=O)C1(C(=O)OC)CC2c3c(c4ccccc4n3C)CC(C1=O)N2Cc1ccccc1 (centres undefined)
3. COc1ccc(NC(=O)/C(Cc2cc(=O)oc3cc(O)ccc23)=N\NC(C)(C)C)c(OC)c1
4. Cc1nc2c(nc1C)C(=O)c1ccccc1C2=O

["28.1 µM (inactive)", "> 100 µM (inactive)", "> 100 µM (inactive)", "26.9 µM (inactive)"]

// for each molecule in input: emit GI50
1. COc1ccc(C2C(C#N)=C(O)NC(O)=C2C#N)cc1OC
2. CCOc1ccc(NC2=NC(=O)C(CC(=O)Nc3ccc(Cl)cc3Cl)S2)cc1 (centres undefined)
3. NC(=O)c1cc(C2OC(CO)C(O)C2O)nn1-c1ccc([N+](=O)[O-])cc1 (centres undefined)
4. CCN(C1=CC(=O)NC2CCCCN12)c1ccccc1 (centres undefined)

> 100 µM (inactive)
> 100 µM (inactive)
36.7 µM (inactive)
> 100 µM (inactive)

// for each molecule in input: emit GI50
1. O=C(c1ccco1)N(C(=S)N1CCN(c2ccccn2)CC1)c1ccccc1
2. O=C(CSc1nnc(-c2ccc(/N=C\c3ccc(Cl)cc3)cc2)o1)Nc1cccc(Cl)c1
3. C[C@@H]1O[C@@H](O[C@H]2[C@H](Oc3cc(O)c4c(=O)cc(-c5ccc(O)cc5)oc4c3)O[C@H](CO)[C@@H](O)[C@@H]2O)[C@H](O)[C@H](O)[C@H]1O [RHOIFOLIN]

> 100 µM (inactive)
> 100 µM (inactive)
> 100 µM (inactive)

* * *

# System: MDA-MB-231
# Assay name: NCI tumour cell line growth inhibition, 48 h
Active and inactive are the calls of the source. Cut-off read from the data, not from the text of the source: active = GI50 up to about 1.1 µM and inactive = higher.
Please reply with one of these outcomes: true = active, false = inactive

{"Compound": "Cc1cc(S(=O)(=O)Nc2nnc3cnc4ccccc4n23)c(S)cc1Cl", "Qualitative label": "false"}
{"Compound": "CN(Cc1cnc2nc(N)nc(N)c2n1)c1ccc(C(=O)NC(CCC(=O)NC(P(=O)(O)O)P(=O)(O)O)C(=O)O)cc1 (stereo not given)", "Qualitative label": "false"}
{"Compound": "O=C(/C=C/c1ccccc1)/C=N/N1C(=S)N(c2ccccc2)C(=N\\c2ccccc2)/C1=N/c1ccccc1", "Qualitative label": "false"}

Hi team, can someone confirm the assay call for CCN(CC)CCCNc1nncc2c(C)c3[nH]c4ccc(OC)cc4c3cc12 ?
true

Hi team, can someone confirm the assay call for COc1cc2c3c(c1OC)C1(C=CC(=O)C=C1)CC3NCC2 (stereo not given) ?
false
